molecular target: PPARγ–DRIP2 interaction (Homo sapiens); assay: FP assay PPARγ–DRIP2
Sequence (P37231 238-503 limits assumed): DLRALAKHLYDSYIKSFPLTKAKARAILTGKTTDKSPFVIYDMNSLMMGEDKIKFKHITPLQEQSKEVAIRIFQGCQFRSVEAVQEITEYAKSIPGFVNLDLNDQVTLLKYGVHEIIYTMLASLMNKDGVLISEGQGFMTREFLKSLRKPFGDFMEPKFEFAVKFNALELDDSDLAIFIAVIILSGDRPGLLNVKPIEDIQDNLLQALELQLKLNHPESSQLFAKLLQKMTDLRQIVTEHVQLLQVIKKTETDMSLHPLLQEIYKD
pEC50: −log10 of the molar value.

[
  {
    "MOLECULE": "Cc1cc(SCc2sc(-c3ccc(C(F)(F)F)c(F)c3)nc2C)ccc1OCC(=O)O [GW0742]",
    "pEC50": 5.59
  }
]
